B1: library; a variant is named by its letters at N, in order (parent)
chain: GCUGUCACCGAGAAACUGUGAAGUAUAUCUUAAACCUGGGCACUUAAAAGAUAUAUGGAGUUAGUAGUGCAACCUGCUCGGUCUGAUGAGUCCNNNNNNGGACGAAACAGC

variants of: B1; test: normalized RNA/DNA level with ligand (relative to sTRSVctl = 100) (log10 (% of sTRSVctl)); HEK293T; ligand: cyclic di-GMP (c-di-GMP-II aptamer); ligand concentration (+) RNA-Seq: 1 mM; higher = less ribozyme self-cleavage, higher mRNA level; conditions: reporter: mCherry (pCS4076), ligand present: yes
measureName: normalized RNA/DNA level with ligand (log10)
// no unit, no text: just the number

- mutation: "CGAGCG"
  readoutValue: 1.9
- mutation: "CCUCUC"
  readoutValue: 1.89
- mutation: "UGCAAU"
  readoutValue: 1.81
- mutation: "CGGCCG"
  readoutValue: 1.87
- mutation: "UGGGAU"
  readoutValue: 1.75

Request: Quick one: normalized RNA/DNA level with ligand (log10) of GCCUCA ?
Response: 1.87

Request: So what's the measured normalized RNA/DNA level with ligand (log10) for this one? GAUUUG
Response: 1.76

Request: Suppose we examine the variant UCAUUC ; what normalized RNA/DNA level with ligand (log10) value has been reported?
Response: 1.85

Request: For CUUUCA , what is its reported normalized RNA/DNA level with ligand (log10)?
Response: 1.66

Request: normalized RNA/DNA level with ligand (log10) for UUAUCA ?
Response: 1.91

Request: If you can, please state the reported normalized RNA/DNA level with ligand (log10) value of AUCCGG .
Response: 1.93

Request: Can you share its normalized RNA/DNA level with ligand (log10)? I mean this variant: UAAAAU
Response: 1.79

Request: Reported normalized RNA/DNA level with ligand (log10), variant UUUCGG : ____
Response: 1.93

Request: What value of measured normalized RNA/DNA level with ligand (log10) is listed for GACCCA ?
Response: 1.85
